- Experiment: Determination of C Log P (n-octanol/water partition, gamma counts)
- Format: physicochemical
Numbered stars: 1 amine (or outer) side, 2 acyl side, 3 side chain; on linkers, the order of the positions; unused ones are H or OH. Bridge positions count the residues as written; N and C are the ends. Square brackets hold non-standard residues; d marks the D form. Side chains are listed from the residue outwards. Peptide text beside a SMILES is read from it. * marks the point of attachment. ξ: configuration not given here. X5 = CCCCCC(=O)N[C@@H](CSCc1cccc(C[*:2])c1)C(=O)N1CCC[C@@H](NC(=O)[*:1])C1; X6 = CCCCCC(=O)N[C@@H](CSCc1cccc(C[*:2])c1)C(=O)C1CCC[C@@H](CC(=O)[*:1])C1; DOTA = O=C(O)CN1CCN(CC(=O)O)CCN(CC(=O)*)CCN(CC(=O)O)CC1; Cha = N[C@@H](CC1CCCCC1)C(=O)O; ξQ = NC(=O)CCC(N)C(=O)O; AEEA = NCCOCCOCC(=O)O; Ahx = NCCCCCC(=O)O; ξP = O=C(O)C1CCCN1
Experimental Endpoint: logP
Reply briefly: the number, and no unit.

Completed entries (count: 3):
{"Compound": "CCCCCC(=O)N[C@H]1CCCCn2cc(nn2)CC(C(=O)N[C@@H](CCCCNC(=O)CN2CCN(CC(=O)O)CCN(CC(=O)O)CCN(CC(=O)O)CC2)C(=O)O)NC(=O)[C@H](Cc2ccccc2)NC(=O)[C@H](CCC(N)=O)NC(=O)[C@H]([C@@H](C)O)NC(=O)C2CCCN2C(=O)N[C@@H]2CCCN(C2)C1=O (single isomer, unassigned) [^177Lu -JHDC11, metal not drawn]", "Experimental Endpoint": "logP", "Assay Result": -3.65}
{"Compound": "CCCCCC(=O)N[C@H]1CSCc2cccc(c2)CSC[C@@H](C(=O)N[C@@H](CCCCNC(=O)COCCOCCNC(=O)CN2CCN(CC(=O)O)CCN(CC(=O)O)CCN(CC(=O)O)CC2)C(=O)O)NC(=O)[C@H](CC2CCCCC2)NC(=O)[C@H](CCC(N)=O)NC(=O)[C@H]([C@@H](C)O)NC(=O)[C@@H]2CCCN2C(=O)N[C@@H]2CCCN(C2)C1=O [^177Lu -JHDC14, metal not drawn] (PTQ[Cha]CK([AEEA-DOTA])-OH; linker N-5 via X5)", "Experimental Endpoint": "logP", "Assay Result": -1.39}
{"Compound": "CCCCCC(=O)N[C@H]1CCCCn2cc(nn2)CSC[C@@H](C(=O)N[C@@H](CCCCNC(=O)COCCNC(=O)CN2CCN(CC(=O)O)CCN(CC(=O)O)CCN(CC(=O)O)CC2)C(=O)O)NC(=O)[C@H](Cc2ccccc2)NC(=O)[C@H](CCC(N)=O)NC(=O)[C@H]([C@@H](C)O)NC(=O)[C@@H]2CCCN2C(=O)C2CN(C2)C1=O (single isomer, unassigned) [^177Lu -JHDC12, metal not drawn]", "Experimental Endpoint": "logP", "Assay Result": -3.81}

Pending compound:
## Input Look up logP: CCCCCC(=O)N[C@H]1CSCc2cccc(c2)CSC[C@@H](C(=O)N[C@@H](CCCCNC(=O)CCCCCNC(=O)CN2CCN(CC(=O)O)CCN(CC(=O)O)CCN(CC(=O)O)CC2)C(=O)O)NC(=O)[C@H](CC2CCCCC2)NC(=O)C(CCC(N)=O)NC(=O)[C@H]([C@@H](C)O)NC(=O)C2CCCN2C(=O)C[C@@H]2CCCC(C2)C1=O (stereo partly shown) [^177Lu -JHDC13, metal not drawn] ([ξP]T[ξQ][Cha]CK([Ahx-DOTA])-OH; linker N-5 via X6)
## Output -1.3

====

- Measurement Target: FAP protein (Homo sapiens)
- Construct: purchased Sinobiological
- Sequence (Q12884 1-760): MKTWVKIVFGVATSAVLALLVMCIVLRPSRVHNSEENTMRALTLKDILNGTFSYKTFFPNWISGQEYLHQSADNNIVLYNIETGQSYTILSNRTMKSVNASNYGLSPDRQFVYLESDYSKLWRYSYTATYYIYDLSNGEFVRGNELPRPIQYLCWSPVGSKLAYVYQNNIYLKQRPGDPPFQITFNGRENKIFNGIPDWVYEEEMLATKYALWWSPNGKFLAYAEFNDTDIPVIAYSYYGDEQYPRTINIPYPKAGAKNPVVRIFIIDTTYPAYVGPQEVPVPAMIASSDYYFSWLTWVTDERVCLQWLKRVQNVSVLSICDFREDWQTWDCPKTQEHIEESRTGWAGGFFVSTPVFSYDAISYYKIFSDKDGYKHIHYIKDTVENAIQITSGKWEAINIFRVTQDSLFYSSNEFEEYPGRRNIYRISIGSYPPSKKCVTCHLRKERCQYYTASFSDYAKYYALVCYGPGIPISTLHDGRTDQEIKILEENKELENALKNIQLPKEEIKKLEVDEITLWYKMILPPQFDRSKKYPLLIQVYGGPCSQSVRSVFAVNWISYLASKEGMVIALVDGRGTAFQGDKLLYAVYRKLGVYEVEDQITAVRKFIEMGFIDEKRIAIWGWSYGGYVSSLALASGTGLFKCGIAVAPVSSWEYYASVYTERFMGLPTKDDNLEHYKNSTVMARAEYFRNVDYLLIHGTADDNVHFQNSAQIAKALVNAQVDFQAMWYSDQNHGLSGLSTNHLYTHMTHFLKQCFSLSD
- Experiment: Biacore test of compound affinity to FAP protein
- Condition Notes: Biacore 8K, SA chip, 15° C., 1:1 binding model; read-out: pKD (FAP) (converted)
Numbered stars: 1 amine (or outer) side, 2 acyl side, 3 side chain; on linkers, the order of the positions; unused ones are H or OH. Bridge positions count the residues as written; N and C are the ends. Square brackets hold non-standard residues; d marks the D form. Side chains are listed from the residue outwards. Peptide text beside a SMILES is read from it. * marks the point of attachment. ξ: configuration not given here. NH(CH2)2(4-DOTA-piperazinyl) = O=C(O)CN1CCN(CC(=O)O)CCN(CC(=O)N2CCN(CCN*)CC2)CCN(CC(=O)O)CC1; DOTA = O=C(O)CN1CCN(CC(=O)O)CCN(CC(=O)*)CCN(CC(=O)O)CC1; Azetidine3carboxylic = O=C(C1CN([*:1])C1)[*:2]; mXylylene = c1cc(C[*:1])cc(C[*:2])c1; Cha = N[C@@H](CC1CCCCC1)C(=O)O; Dab = NCC[C@H](N)C(=O)O; Aoc = NCCCCCCCC(=O)O; CO = O=C([*:1])[*:2]; ξP = O=C(O)C1CCCN1; ξC = NC(CS)C(=O)O; NHBu = CCCCN*
The following compounds are shown together with reported Kd values.

{"Compound": "CCCCNC(=O)N[C@H]1CSCc2cccc(c2)CSCC(C(=O)N[C@@H](CCNC(=O)CCCCCCCNC(=O)CN2CCN(CC(=O)O)CCN(CC(=O)O)CCN(CC(=O)O)CC2)C(=O)O)NC(=O)[C@H](CC2CCCCC2)NC(=O)[C@H](CCC(N)=O)NC(=O)[C@H]([C@@H](C)O)NC(=O)C2CCCN2C(=O)C2CN(C2)C1=O (some centres unmarked) [JHDC53] ({NHBu-CO}-C[Azetidine3carboxylic][ξP]TQ[Cha][ξC][Dab]([Aoc-DOTA])-OH; linker 1-7 via mXylylene)", "Kd": "10 to 100 nM"}

Pending compound:
## Input Look up Kd: CCCCNC(=O)N[C@H]1CSCc2cccc(c2)CSC[C@@H](C(=O)N[C@@H](CCC(=O)NCCN2CCN(C(=O)CN3CCN(CC(=O)O)CCN(CC(=O)O)CCN(CC(=O)O)CC3)CC2)C(=O)O)NC(=O)[C@H](Cc2ccccc2)NC(=O)[C@H](CCC(N)=O)NC(=O)[C@H]([C@@H](C)O)NC(=O)C2CCCN2C(=O)C2CN(C2)C1=O (some centres unmarked) [JHDC50] ({NHBu-CO}-C[Azetidine3carboxylic][ξP]TQFCE(NH(CH2)2(4-DOTA-piperazinyl))-OH; linker 1-7 via mXylylene)
## Output 10 to 100 nM
